Where do the numbers come from? From the supplement of paper PMC9112550.

system: Escherichia coli TOP10; assay: shrunken log2 fold change of peptide-encoding DNA abundance (4.5 h post-induction vs induction); higher = less antimicrobial activity (less host growth inhibition); settings: time post-induction: 4.5 h; library: site-saturation at positions 5, 18, 19, 20
Attribute measured: shrunken log2 fold change
Give the value as a plain number.

Consider the following illustrative entries.
In [3]: df
Out[3]:
            sequence_chain         attribute_measured  reported_result
0  RRIRSRPPRLPRPRPRPHRMPRP  shrunken log2 fold change           -0.697
1  RRIRCRPPRLPRPRPRPEANPRP  shrunken log2 fold change            0.477
2  RRIRQRPPRLPRPRPRPCEVPRP  shrunken log2 fold change         -0.00192
3  RRIRFRPPRLPRPRPRPRCFPRP  shrunken log2 fold change           -0.183
4  RRIRRRPPRLPRPRPRPMSMPRP  shrunken log2 fold change            -0.17

// returns reported shrunken log2 fold change for input RRIRQRPPRLPRPRPRPLYEPRP
-0.671

// returns reported shrunken log2 fold change for input RRIRFRPPRLPRPRPRPAEKPRP
-0.0885

// returns reported shrunken log2 fold change for input RRIRNRPPRLPRPRPRPHCGPRP
-0.225

// returns reported shrunken log2 fold change for input RRIRVRPPRLPRPRPRPSEAPRP
0.0122

// returns reported shrunken log2 fold change for input RRIRRRPPRLPRPRPRPLHLPRP
-0.318

// returns reported shrunken log2 fold change for input RRIRNRPPRLPRPRPRPRCNPRP
-0.0207

// returns reported shrunken log2 fold change for input RRIRGRPPRLPRPRPRPGCLPRP
1.01

// returns reported shrunken log2 fold change for input RRIRRRPPRLPRPRPRPERDPRP
0.423

// returns reported shrunken log2 fold change for input RRIRIRPPRLPRPRPRPNRRPRP
0.041

// returns reported shrunken log2 fold change for input RRIRMRPPRLPRPRPRPMTIPRP
-0.329

###

system: Escherichia coli TOP10; assay: shrunken log2 fold change of peptide-encoding DNA abundance (4.5 h post-induction vs induction); higher = less antimicrobial activity (less host growth inhibition); conditions: time post-induction: 4.5 h; library: site-saturation at positions 5, 18, 19, 20
Please note: 1 applies when shrunken log2 fold change is 0.09 or greater, and 0 applies otherwise.

For this sequence, is measured shrunken log2 fold change 0.09 or higher? RRIRWRPPRLPRPRPRPCPAPRP
0

For this sequence, is measured shrunken log2 fold change 0.09 or higher? RRIRFRPPRLPRPRPRPLCPPRP
0

For this sequence, is measured shrunken log2 fold change 0.09 or higher? RRIRFRPPRLPRPRPRPAMGPRP
1

For this sequence, is measured shrunken log2 fold change 0.09 or higher? RRIRNRPPRLPRPRPRPDHSPRP
0

For this sequence, is measured shrunken log2 fold change 0.09 or higher? RRIRWRPPRLPRPRPRPDQPPRP
1

For this sequence, is measured shrunken log2 fold change 0.09 or higher? RRIRTRPPRLPRPRPRPKWKPRP
0

For this sequence, is measured shrunken log2 fold change 0.09 or higher? RRIRGRPPRLPRPRPRPLEIPRP
1

For this sequence, is measured shrunken log2 fold change 0.09 or higher? RRIRKRPPRLPRPRPRPLAVPRP
0

For this sequence, is measured shrunken log2 fold change 0.09 or higher? RRIRRRPPRLPRPRPRPSIFPRP
0

For this sequence, is measured shrunken log2 fold change 0.09 or higher? RRIRGRPPRLPRPRPRPHYHPRP
0

For this sequence, is measured shrunken log2 fold change 0.09 or higher? RRIRTRPPRLPRPRPRPKANPRP
0

For this sequence, is measured shrunken log2 fold change 0.09 or higher? RRIRYRPPRLPRPRPRPSFCPRP
0

For this sequence, is measured shrunken log2 fold change 0.09 or higher? RRIRQRPPRLPRPRPRPMGAPRP
1

For this sequence, is measured shrunken log2 fold change 0.09 or higher? RRIRQRPPRLPRPRPRPMWNPRP
0

For this sequence, is measured shrunken log2 fold change 0.09 or higher? RRIRIRPPRLPRPRPRPIGEPRP
0

For this sequence, is measured shrunken log2 fold change 0.09 or higher? RRIRIRPPRLPRPRPRPPQEPRP
0

For this sequence, is measured shrunken log2 fold change 0.09 or higher? RRIRMRPPRLPRPRPRPGGGPRP
1

###

test system: Escherichia coli TOP10; test: shrunken log2 fold change of peptide-encoding DNA abundance (4.5 h post-induction vs induction); higher = less antimicrobial activity (less host growth inhibition); conditions: time post-induction: 4.5 h; library: site-saturation at positions 5, 18, 19, 20
Please note: 1.0 applies when shrunken log2 fold change is -0.02 or greater, and 0.0 applies otherwise.

Example results:
>>> print(df.to_string())
            sequence_chain  label
0  RRIRCRPPRLPRPRPRPYCHPRP    0.0
1  RRIRYRPPRLPRPRPRPKLTPRP    0.0
2  RRIRMRPPRLPRPRPRPEEWPRP    1.0

For this sequence, is measured shrunken log2 fold change -0.02 or higher? RRIRRRPPRLPRPRPRPFLNPRP
0.0

For this sequence, is measured shrunken log2 fold change -0.02 or higher? RRIRVRPPRLPRPRPRPNYDPRP
1.0

###

The reader will find reported shrunken log2 fold change values listed item by item below.
system: Escherichia coli TOP10; experiment: shrunken log2 fold change of peptide-encoding DNA abundance (4.5 h post-induction vs induction); higher = less antimicrobial activity (less host growth inhibition); conditions: time post-induction: 4.5 h; library: site-saturation at positions 5, 18, 19, 20
Give the value as a plain number.

Consider the following illustrative entries.
>>> df
            sequence_chain         attribute_measured  reported_result
0  RRIRPRPPRLPRPRPRPMWPPRP  shrunken log2 fold change            0.213
1  RRIRDRPPRLPRPRPRPGRYPRP  shrunken log2 fold change           -0.134
2  RRIRHRPPRLPRPRPRPYICPRP  shrunken log2 fold change           -0.153
3  RRIRERPPRLPRPRPRPAFHPRP  shrunken log2 fold change           -0.154

// returns reported shrunken log2 fold change for input RRIRPRPPRLPRPRPRPVMEPRP
-0.101

// returns reported shrunken log2 fold change for input RRIRLRPPRLPRPRPRPQSPPRP
-0.0515

// returns reported shrunken log2 fold change for input RRIRSRPPRLPRPRPRPIRCPRP
0.00778

###

test system: Escherichia coli TOP10; experiment: shrunken log2 fold change of peptide-encoding DNA abundance (4.5 h post-induction vs induction); higher = less antimicrobial activity (less host growth inhibition); conditions: time post-induction: 4.5 h; library: site-saturation at positions 5, 18, 19, 20
Attribute measured: shrunken log2 fold change
Give the value as a plain number.

            sequence_chain             test_system         attribute_measured  reported_result
0  RRIRFRPPRLPRPRPRPSVMPRP  Escherichia coli TOP10  shrunken log2 fold change           -0.537

Hi! What's the reported shrunken log2 fold change for RRIRGRPPRLPRPRPRPTREPRP on Escherichia coli TOP10?
0.994

Hi! What's the reported shrunken log2 fold change for RRIRVRPPRLPRPRPRPVKVPRP on Escherichia coli TOP10?
0.0348

Hi! What's the reported shrunken log2 fold change for RRIRCRPPRLPRPRPRPWTPPRP on Escherichia coli TOP10?
-0.131

Hi! What's the reported shrunken log2 fold change for RRIRRRPPRLPRPRPRPGICPRP on Escherichia coli TOP10?
0.0771

Hi! What's the reported shrunken log2 fold change for RRIRSRPPRLPRPRPRPACAPRP on Escherichia coli TOP10?
0.482

Hi! What's the reported shrunken log2 fold change for RRIRERPPRLPRPRPRPHWGPRP on Escherichia coli TOP10?
0.0212

###

system: Escherichia coli TOP10; assay: shrunken log2 fold change of peptide-encoding DNA abundance (4.5 h post-induction vs induction); higher = less antimicrobial activity (less host growth inhibition); conditions: time post-induction: 4.5 h; library: site-saturation at positions 5, 18, 19, 20;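 note: peptides expressed intracellularly from a pBAD plasmid library in pooled LB shake-flask culture, induced with 0.3% L-arabinose, DNA abundance read by NGS, three biological replicates, DESeq2 with apeglm shrinkage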
Attribute measured: shrunken log2 fold change
Give the value as a plain number.

>>> print(df.to_string())
            sequence_chain  reported_result
0  RRIRCRPPRLPRPRPRPPRNPRP             1.05
1  RRIRQRPPRLPRPRPRPRMTPRP            0.388
2  RRIRNRPPRLPRPRPRPEGRPRP            0.177

// returns reported shrunken log2 fold change for input RRIRRRPPRLPRPRPRPGIAPRP
0.185

// returns reported shrunken log2 fold change for input RRIRVRPPRLPRPRPRPPACPRP
0.692
